Ref: patent US9888690B2

test system: Mycobacterium tuberculosis Ra; experiment: XTT assay, anti-mycobacterial activity; type: cell-based, M. tuberculosis H37Ra (ATCC 25177); settings: inhibition at 100 μg/ml, 8th day of incubation
Kindly state inhibition at 100 µg/mL for each of the entries shown.
The reply should be a number in %, with the unit left off.

So what does the record say about inhibition at 100 µg/mL for CC[C@H](OC1OC(CO)C(O)C(O)C1O)c1cc2n(c(=O)c1C)Cc1cc3ccccc3nc1-2 (stereo partly shown) ?
48.3

So what does the record say about inhibition at 100 µg/mL for CCCCCCCC(CC)COC(=O)c1ccccc1C(=O)OCC(CC)CCCCCCC (stereo not shown) [Phthalate] ?
45.6

So what does the record say about inhibition at 100 µg/mL for "CC[C@](O)(C(=O)O)c1cc2n(c(=O)c1COC(C)=O)Cc1cc3c(OC)cccc3nc1-2" ?
59

So what does the record say about inhibition at 100 µg/mL for "CC[C@](O)(C(=O)O)c1cc2n(c(=O)c1COC(C)=O)Cc1cc3ccccc3nc1-2" ?
88.4
